Test system: SYO-1 tumor spheroids, viability % test/control
PROTOCOL: Anticancer human tumor SYO-1 cell line growth inhibition;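 also: spheroids exposed to agents for 7 days before viability read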;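 as to viability, T/C: 100% = DMSO vehicle control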
EXPERIMENTAL_CONDITIONS: second compound 10 µM; first compound 1 µM; stronger effect = lower value; spheroids with HUVEC and MSC
Below, each entry is listed with its recorded viability, T/C.
Please state the figure in %; there is no need to write the unit.

Before answering, review these 5 worked examples.
CC(C)n1c(=O)n(C)c2cnc3cc(F)c(-c4ccc(OCCCN5CCCCC5)nc4)cc3c21 + Cn1nnc2c(C(N)=O)ncn2c1=O ... 108
COc1cc(C)[nH]c(=O)c1CN1CCc2c(Cl)cc(C(OC)C3COC3)c(Cl)c2C1=O (stereo unspecified) + Cn1nnc2c(C(N)=O)ncn2c1=O ... 89.7
[2H]c1nc(C)nc([2H])c1-c1cc(NC[C@@H](C)c2cccc3c(C(=O)NC)ccnc23)ncn1 + Cn1nnc2c(C(N)=O)ncn2c1=O ... 96.1
Cc1cc(C)c(CNC(=O)c2cc(-c3ccc(CN4CCOCC4)cc3)cc3c2cnn3C2CCCC2)c(=O)[nH]1 + Cn1nnc2c(C(N)=O)ncn2c1=O ... 108
CC1COCCN1c1cc(-c2ccnn2C)c2ccnc(-c3ccn[nH]3)c2n1 (stereo unspecified) + Cn1nnc2c(C(N)=O)ncn2c1=O ... 1.48

Let's switch to this compound now.
Input line: Consider the compound shown here: COc1ccc([C@@H](O)c2cc(-c3ncnc4cc(N5CCOCC5)ccc34)c(F)cc2Cl)nn1 + Cn1nnc2c(C(N)=O)ncn2c1=O What is its recorded viability, T/C?
Output line: 107

====

Test system: SYO-1 tumor spheroids, viability % test/control
PROTOCOL: Anticancer human tumor SYO-1 cell line growth inhibition;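 also: spheroids exposed to agents for 7 days before viability read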
EXPERIMENTAL_CONDITIONS: curve of first compound; second compound 31.6 µM; spheroids with HUVEC and MSC
OBSERVABLE: IC50 (nM)
Please state the figure in nM; there is no need to write the unit.

Cc1sc2c(c1C)C(c1ccc(Cl)cc1)=NC(CC(=O)Nc1ccc(O)cc1)c1nnc(C)n1-2 (stereo not drawn) + Cn1nnc2c(C(N)=O)ncn2c1=O ... 53.5

Input line: Consider the compound shown here: O=C(c1cc(Cc2n[nH]c(=O)c3ccccc23)ccc1F)N1CCN(C(=O)C2CC2)CC1 + Cn1nnc2c(C(N)=O)ncn2c1=O What is its recorded IC50?
Output line: 155

====

Tested on: SYO-1 tumor spheroids, viability % test/control
PROTOCOL: Anticancer human tumor SYO-1 cell line growth inhibition;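 also: spheroids exposed to agents for 7 days before viability read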;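 as to viability, T/C: 100% = DMSO vehicle control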
EXPERIMENTAL_CONDITIONS: second compound 0.3 µM; first compound 0.3 µM; stronger effect = lower value; spheroids with HUVEC and MSC
OBSERVABLE: viability, T/C (%)
Please state the figure in %; there is no need to write the unit.

Before answering, review these 3 worked examples.
CNCc1ccc(-c2cc(-c3nc(-c4ccc(S(=O)(=O)C(C)C)cc4)cnc3N)on2)cc1 + CC[C@@]1(O)C(=O)OCc2c1cc1n(c2=O)Cc2cc3c(CN(C)C)c(O)ccc3nc2-1 ... 1.63
O=C(c1cc(Cc2n[nH]c(=O)c3ccccc23)ccc1F)N1CCN(C(=O)C2CC2)CC1 + CC[C@@]1(O)C(=O)OCc2c1cc1n(c2=O)Cc2cc3c(CN(C)C)c(O)ccc3nc2-1 ... 1.92
Cc1sc2c(c1C)C(c1ccc(Cl)cc1)=NC(CC(=O)Nc1ccc(O)cc1)c1nnc(C)n1-2 (centres undefined) + CC[C@@]1(O)C(=O)OCc2c1cc1n(c2=O)Cc2cc3c(CN(C)C)c(O)ccc3nc2-1 ... 0.75

Let's switch to this compound now.
Input line: Consider the compound shown here: Cn1ncnc1[C@H]1c2n[nH]c(=O)c3cc(F)cc(c23)N[C@@H]1c1ccc(F)cc1 + CC[C@@]1(O)C(=O)OCc2c1cc1n(c2=O)Cc2cc3c(CN(C)C)c(O)ccc3nc2-1 What is its recorded viability, T/C?
Output line: 1.37
